Tested on: CEM cells HIV-1 protection, formazan growth assay
EXPERIMENTAL DETAILS: NCI AIDS Antiviral Assay
TEST CONTEXT: measured here: growth of uninfected CEM cells
Field: IC50. Provide a value for each of the molecules that follow.
Answers are plain numbers, in µM.

* C/C(=N/OC(=O)N(C)C)c1ccc(Cl)cc1Cl | 105
* CCCCCCOP(=O)(OCCCCCC)OC(C(=O)OC)C(F)(F)F (stereo not given) | 44.7
* CCn1c(=O)c2c3ccc(OC)cc3[nH]c2c2ccc(OC)cc21 | 56.2

Request: Value lookup for IC50; key = O=C(/C=C/c1ccccc1)Nc1ccccc1SCCCCl
Result: 9.55

---

System: CEM cells HIV-1 protection, formazan growth assay
EXPERIMENTAL DETAILS: NCI AIDS Antiviral Assay
TEST CONTEXT: measured here: growth of uninfected CEM cells
OBSERVED PROPERTY: pIC50
Give bare numbers, as −log10 of the molar value.

- CCC1(Br)OC1=O (stereo not drawn): 3.97
- CN1c2ccccc2Sc2c1n[nH]c2-c1ccccc1: 4.68
- CCC(=O)N(c1ccccc1)C(C)CN1CCC(O)(c2cccc(C(F)(F)F)c2)CC1 (stereo not drawn): 4.13
- CC(=O)N1N=C(c2ccccc2Nc2ccccc2C2=NN(C(C)=O)C(c3ccccc3)O2)OC1c1ccccc1 (stereo not drawn): 5.21
- Cn1ccnc1CCc1c(Cl)cccc1Cl: 3.91
- O=[N+]([O-])c1ccc2nc(/C=C(\O)c3ccccc3)c(/C=C(\O)c3ccc(Cl)cc3)nc2c1: 4.96

Give pIC50 for all molecules that follow.
1. CN(C)c1ccc(/C=C/c2cc[n+](C)c3ccccc23)cc1
2. O=S(=O)(O)c1cc[c]([Sb](=[O])([OH])[OH])cc1
3. OC1C[C@H](c2ccccc2)C2(C(O)c3ccccc3C2O)[C@@H](c2ccccc2)C1 (stereo partly drawn)
4. Cc1csc(=Nc2ccccc2)n1CCC(O)(P(=O)(O)O)P(=O)(O)O
5. COc1cc2c3c(cccc3c1)C(=O)N(CCN1CCCC1)C2=O
6. Oc1ccc(O)c(-n2cccn2)c1

Result:
1: 6.30; 2: 3.40; 3: 4.05; 4: 5.02; 5: 5.61; 6: 5.14

---

System: CEM cells HIV-1 protection, formazan growth assay
EXPERIMENTAL DETAILS: NCI AIDS Antiviral Assay;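 active = compounds giving half or more protection of infected cells from virus-caused growth loss, again on retest; inactive = the rest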
Choose one outcome from this list and give only that: active, inactive

* N#CC(C#N)=Cc1ccc(C#N)cc1 | inactive
* CC(=O)OCCn1c(Cc2ccc(C)cc2)nn(C(C)=O)c1=O | inactive
* COc1cc2c(c3oc(=O)ccc13)[C@@H](OC(=O)C13CCC(C)(C(=O)O1)C3(C)C)[C@@H](OC(=O)C13CCC(C)(C(=O)O1)C3(C)C)C(C)(C)O2 (stereo not given in full) | active
* O=C(/C=C/c1c(O)ccc2ccccc12)c1ccc([N+](=O)[O-])cc1 | inactive
* COc1ccc(Cc2c[n+](C)cc3cc(N=O)c(OC)cc23)cc1O | inactive

Request: # fetch the recorded call for CC1=CP(=O)(c2ccccc2)CC1 (stereo not given) (tested in a mixture with another compound) here
Result: inactive

Request: # fetch the recorded call for NN1C(=O)CS/C1=N\C(=S)N/N=C1/SCC(=O)N1N here
Result: inactive

Request: # fetch the recorded call for CC(C)(C)OC(=O)NCCC(N)=S here
Result: inactive

Request: # fetch the recorded call for CCCCCCCCCCCCCCCCOC[C@@H](COC1OC(CO)C(O)C(O)C1O)OCCCCCCCCCCCCCCCC (stereo not given in full) here
Result: inactive

Request: # fetch the recorded call for S=c1nn[nH]n1-c1ccccc1.[Cd] here
Result: inactive
